System: IGROV1 ovarian
assay.info: NCI-60 one-dose screen, 48 h
study.conditions: 10 µM unless noted
The panel holds about 83,000 compounds, 20% with a hit somewhere; the sample as a whole holds those more often. Calls of active or inactive are those of the source. The calls were made as follows: active = growth percent below 10; inactive = the rest.
Classes used: active, inactive

molecule	assigned.label
N#C/C=C(\c1ccc([N+](=O)[O-])cc1)n1nnc2cc(Cl)c(Cl)cc21	active
O=C(Nc1cccc2[nH]c(C(F)(F)F)nc12)c1cc(Cl)ccc1Cl	inactive
Nc1c(-c2nc3ccccc3c(=O)[nH]2)nnn1-c1ccc(Cl)cc1	inactive
COc1ccc(NC(=O)C(=O)c2c[nH]c3ccc(F)cc23)cc1	inactive
COc1ccc(OC)c(/C=C2\COc3ccc(O)c(O)c3C2=O)c1	active
C#CC[C@H](N)C(=O)O	inactive
COC1=CC(c2ccc[nH]2)=N/C1=C\c1[nH]c(C)c(C(=O)OCCn2cc(CCC[C@@H]3Cc4cc(O)ccc4C4CC[C@]5(C)[C@@H](O)CC[C@H]5C43)nn2)c1C (some centres undefined)	inactive
CC(=O)NCC(=O)Nc1ccc(-c2nnc3ccccn23)nc1.CC(=O)NCC(=O)Nc1ccc(-c2nnc3ccccn23)nc1.[Pt+2]	inactive
CCN(CC)CC(=O)Nc1cccc(C(=O)OC(C)C)c1	inactive
